test system: Plasmodium berghei; assay: Screen against P. berghei liver stage (PbLuc), transformed with Luciferase, at 10uM; format: functional, HepG2; conditions: tested at 10 uM
Hit rate of the full screen: of about 69,000 compounds, about 8,600 (12%) showed an effect of 50% or more. Shown is part of a subset that was picked to be rich in strong results.
molecules and their reported INHIBITION
Expressed in %, but write only the number.

>>> readout_value("CC(=O)c1c(F)cccc1N1CCC(NS(=O)(=O)c2ccccc2)CC1")
78
>>> readout_value("CS(=O)(=O)N1CCOCC2(CCN(c3ccccn3)C2)C1 (stereo unspecified)")
5.96
>>> readout_value("Cc1csc(N2CCCN(C(=O)c3csc(C)n3)CC2)n1")
37.9
>>> readout_value("CC(=O)c1c(F)cccc1N1CCC(CS(N)(=O)=O)CC1")
30.1
>>> readout_value("CC(=O)c1c(F)cccc1N1CCC(Cc2cccnc2)CC1")
83.4
>>> readout_value("COc1ccc(-c2noc(C(N)CCSC)n2)cc1 (stereo unspecified)")
36.2
>>> readout_value("CNc1nc(C(=O)N2CCN(c3ccc(Cl)c(Cl)c3)CC2)cs1")
86.6
>>> readout_value("CNc1nc(C(=O)N2C[C@@H]3CCN(C)[C@@H]3C2)cs1")
55
>>> readout_value("Cc1cc(C(=O)N2CCC3(CC2)CC(c2cccnc2)C(=O)N3C)no1 (stereo unspecified)")
-36.5
>>> readout_value("CC(=O)c1c(F)cccc1N1CCC(C(N)=O)CC1")
-13.1

We next turn to a different molecule, shown below.
Q: What measured INHIBITION goes with COCCc1noc(-c2cc(Cl)c3c(c2)OCCCO3)n1 ?
Ans: -119
